The values you see were collected from ChEMBL document CHEMBL5352435.

- test.method.notes: Cytotoxicity against human Huh-7 cells assessed as reduction in cell viability incubated for 24 hrs by PrestoBlue assay
- Assay type: toxicity, cell-based
readout: CC50 at 24 h

Prompt: Quick one: CC50 at 24 h of `COc1ccc2[nH]cc(CCNC(C)=O)c2c1` ?
Completion: 3.17 mM

###

- system.name: Nonstructural protein 3 (Zika virus, UniProt A0A024AXB9)
- Sequence (A0A024AXB9 whole entry): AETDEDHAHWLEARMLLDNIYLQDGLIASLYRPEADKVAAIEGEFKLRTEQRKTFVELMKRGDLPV
- test.method.notes: Inhibition of recombinant ZIKV NS2B-NS3 protease using Bz-Nle-K-K-R-AMC as substrate incubated for 1 hr by fluorescence-based microplate reader assay
readout: pIC50
One number for each entry, as −log10 of the molar value.

Prompt: I'd like to know its pIC50. The molecule in question is `O=[N+]([O-])c1ccc(Nc2ccc3[nH]ncc3c2)nc1N1CCNCC1`
Completion: 5.82

###

- system.name: Genome polyprotein (dengue virus type 2)
- Sequence (P29990 1346-1475 limits assumed): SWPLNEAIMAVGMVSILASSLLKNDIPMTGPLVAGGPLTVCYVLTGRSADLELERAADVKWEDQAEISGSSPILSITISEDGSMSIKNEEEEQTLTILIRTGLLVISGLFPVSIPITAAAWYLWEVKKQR
- Sequence (P29990 1476-2093 limits assumed): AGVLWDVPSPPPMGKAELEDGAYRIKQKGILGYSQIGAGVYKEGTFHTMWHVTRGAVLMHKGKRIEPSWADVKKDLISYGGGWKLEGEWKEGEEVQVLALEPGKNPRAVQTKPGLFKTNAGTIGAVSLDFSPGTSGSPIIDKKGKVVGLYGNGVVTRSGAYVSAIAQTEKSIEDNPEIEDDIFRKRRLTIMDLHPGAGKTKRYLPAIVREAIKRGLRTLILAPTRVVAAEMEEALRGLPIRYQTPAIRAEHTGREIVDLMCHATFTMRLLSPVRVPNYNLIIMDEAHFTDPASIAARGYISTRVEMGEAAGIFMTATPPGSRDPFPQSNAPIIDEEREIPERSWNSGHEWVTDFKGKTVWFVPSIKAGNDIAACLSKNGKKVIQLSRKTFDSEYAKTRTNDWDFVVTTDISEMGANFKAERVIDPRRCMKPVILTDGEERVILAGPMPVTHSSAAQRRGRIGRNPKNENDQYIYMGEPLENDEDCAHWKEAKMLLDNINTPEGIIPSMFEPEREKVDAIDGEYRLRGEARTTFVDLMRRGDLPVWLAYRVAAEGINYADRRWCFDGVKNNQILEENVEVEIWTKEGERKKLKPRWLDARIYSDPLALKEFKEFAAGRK
- test.method.notes: Inhibition of DENV2 NS2B/NS3 protease using Boc-Gly-Arg-Arg-MCA as substrate preincubated for 10 mins followed by substrate addition and measured after 60 mins by fluorescence microplate reader assay
readout: pIC50
Numbers only, as −log10 of the molar value.

Prompt: GET /values?readout=pIC50&item= `O=C(CCCCCCCCc1ccc(O)cc1)c1c(O)cc(O)cc1O`
Completion: 5.12

###

- system.name: Genome polyprotein (dengue virus type 2)
- test.method.notes: Inhibition of DENV2 NS2B (48 to 100 residues)/NS3 (14 to 185 residues) protease expressed in Escherichia coli BL21 (DE3) using Bz-Nle-Lys-Arg-Arg-AMC as substrate preincubated for 30 mins followed by substrate addition by fluorescence assay
readout: pIC50
Answers are plain numbers, as −log10 of the molar value.

Prompt: Fill in the blank: the reported pIC50 of `O=c1c(O)c(-c2cc(O)c(O)c(O)c2)oc2cc(O)cc(O)c12` is ____.
Completion: 5.07

###

- test.method.notes: Cytotoxicity against human Huh-7 cells assessed as reduction in cell viability incubated for 48 hrs by AlamarBlue assay
- Type: toxicity, cell-based
Can you tell me CC50 at 48 h for the items I'm about to list?

Prompt: Any idea what its CC50 at 48 h is? The compound is `O=C1NCc2ccc(Nc3ccnc4ccc(Br)cc34)cc21`
Completion: > 10 µM

Next item in the queue.
Prompt: Using the record for `Fc1cc2cn[nH]c2cc1Nc1ccnc2ccc(Br)cc12` , report its CC50 at 48 h.
Completion: > 10 µM

###

Answer each item with its documented EC50.
- Test system: dengue virus type 2
- test.method.notes: Antiviral activity against DENV2 New Guinea C infected in golden hamster BHK-21 cells assessed as inhibition of plaque formation and measured after 22 hrs by crystal violet based plaque assay
- Type: functional, organism-based
- condition.label: BHK-21, 22 h
Numbers only, in nM.

Prompt: Lab note: need EC50 with dengue virus type 2 for entry `COc1cc(/C=C(\C#N)C(=O)c2ccc(O)c(O)c2)cc(I)c1O` , please look it up.
Completion: 3000

Further cases:
Prompt: Param readout = EC50; param system = dengue virus type 2; param query = Cc1ccc(C(=O)Nc2ccc(S(=O)(=O)O)c3cc(S(=O)(=O)O)cc(S(=O)(=O)O)c23)cc1NC(=O)c1cccc(NC(=O)Nc2cccc(C(=O)Nc3cc(C(=O)Nc4ccc(S(=O)(=O)O)c5cc(S(=O)(=O)O)cc(S(=O)(=O)O)c45)ccc3C)c2)c1 [SURAMIN HEXASODIUM] ; response: value
Completion: 350
